Tested system: TYK2 (Homo sapiens (Human), UniProt P29597)
Sequence (P29597 897-1176): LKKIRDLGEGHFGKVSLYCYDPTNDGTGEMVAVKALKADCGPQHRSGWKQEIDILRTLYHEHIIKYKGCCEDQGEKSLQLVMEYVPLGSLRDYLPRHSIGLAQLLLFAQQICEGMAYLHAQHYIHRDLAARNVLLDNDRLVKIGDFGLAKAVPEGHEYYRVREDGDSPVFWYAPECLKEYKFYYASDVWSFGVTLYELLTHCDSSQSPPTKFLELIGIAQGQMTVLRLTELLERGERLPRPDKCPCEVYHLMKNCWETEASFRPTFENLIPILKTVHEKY
Assay explanation: JAK Caliper Enzyme Assay at 1 mM ATP, TYK2
Format: biochemical
pIC50: −log10 of the molar value.
Lab note: compare pIC50 against 7. Equal or greater, write Criterion met. Smaller, write Criterion not met.

Some solved entries appear below for comparison.
CS(=O)(=O)c1ccc(-c2cc(-c3cnn([C@]4(CC#N)C[C@@H](C#N)C4)n3)c3cccnc3c2)nc1 | Criterion met
CS(=O)(=O)N1CC(CC#N)(n2ccc(-c3nc(-c4ccc(S(N)(=O)=O)nc4)cc4ncccc34)n2)C1 | Criterion met
CC(C)(O)[C@H]1C[C@](CC#N)(n2ccc(-c3nc(-c4cc[nH]n4)cc4ncccc34)n2)C1 | Criterion not met
N#CCC1CC(CC#N)(n2ccc(-c3nc(-c4ccn[nH]4)cc4ncccc34)n2)C1 (stereo not drawn) | Criterion met

Q. Does the molecule `Cc1cc(-c2cc3ncccc3c(-c3ccn([C@]4(CC#N)C[C@@H](C#N)C4)n3)n2)nn1C` have recorded pIC50 that is 7 or more?
A. Criterion met

Q. Does the molecule `Cn1cc(-c2cc3ncccc3c(-c3cc(C4(CC#N)CN(CC#N)C4)no3)n2)cn1` have recorded pIC50 that is 7 or more?
A. Criterion met

Q. Does the molecule `N#CC[C@]1(n2ncc(-c3cc(-c4cc[nH]n4)cc4ncccc34)n2)C[C@H](C#N)C1` have recorded pIC50 that is 7 or more?
A. Criterion met

Q. Does the molecule `CCN1CC(CC#N)(n2ccc(-c3nc(N4CCOCC4)cc4ncccc34)n2)C1` have recorded pIC50 that is 7 or more?
A. Criterion not met

Q. Does the molecule `CCN1CC(CC#N)(n2ccc(-c3nc(C4=CCOCC4)cc4ncccc34)n2)C1` have recorded pIC50 that is 7 or more?
A. Criterion not met

Q. Does the molecule `CS(=O)(=O)N1CC(CC#N)(n2ccc(-c3nc(-c4cnn([C@H]5CCOC5)c4)cc4ncccc34)n2)C1` have recorded pIC50 that is 7 or more?
A. Criterion met

Q. Does the molecule N#CC[C@]1(n2ccc(-c3nc(-c4ccc(S(N)(=O)=O)nc4)cc4ncccc34)n2)C[C@H](C#N)C1 [Example 211] have recorded pIC50 that is 7 or more?
A. Criterion met

Q. Does the molecule CS(=O)(=O)c1ccc(-c2cc3ncccc3c(-c3ccn(C4(CC#N)CC(C#N)C4)n3)n2)cn1 (stereo not drawn) have recorded pIC50 that is 7 or more?
A. Criterion met

###

# IC50 annotations
Tested system: JAK2 (Homo sapiens (Human), UniProt O60674)
Sequence (O60674 849-1124): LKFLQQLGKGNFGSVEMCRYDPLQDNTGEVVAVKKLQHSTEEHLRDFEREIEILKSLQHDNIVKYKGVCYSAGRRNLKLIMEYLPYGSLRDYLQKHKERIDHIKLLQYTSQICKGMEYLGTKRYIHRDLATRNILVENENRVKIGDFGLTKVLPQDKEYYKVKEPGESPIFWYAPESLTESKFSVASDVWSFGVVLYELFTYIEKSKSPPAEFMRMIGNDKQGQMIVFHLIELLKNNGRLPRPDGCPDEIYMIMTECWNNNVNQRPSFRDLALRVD
Assay explanation: JAK Caliper Enzyme Assay at 1 mM ATP, JAK2
Assay type: biochemical
Experimental: Compounds of the invention were evaluated by in vitro methods to determine their respective ability to inhibit the JAK kinases (TYK2, JAK1, JAK2, JAK3). The human JAK inhibitory activity was determined by using a microfluidic assay to monitor phosphorylation of a synthetic peptide by the recombinant human kinase domain of each of the four members of the JAK family, JAK1, JAK2, JAK3 and TYK2. […]
Express the result in µM but write the number alone.

Take a look at these entries with their results.
N#CC[C@]1(n2ncc(-c3cc(-c4cccc(N)n4)cc4ncccc34)n2)C[C@H](C#N)C1 | 0.67
CS(=O)(=O)N1CC(CC#N)(n2ccc(-c3nc(-c4ccn5ccnc5c4)cc4ncccc34)n2)C1 | 0.294
N#CC[C@]1(n2ccc(-c3nc(-c4cccc(C(N)=O)n4)cc4ncccc34)n2)C[C@H](C#N)C1 | 0.471

Now look at this one.
Q. I have this compound here, `N#CC[C@]1(n2ncc(-c3cc(-c4cn[nH]c4)cc4ncccc34)n2)C[C@@H](C#N)C1` , and I need its recorded IC50.
A. 0.048
